Source: patent US10221163B2

experimental.system: VIM-1 (Pseudomonas aeruginosa (strain ATCC 15692 / DSM 22644 / CIP 104116 / JCM 14847 / LMG 12228 / 1C / PRS 101 / PAO1), UniProt A0A0F7KYQ8)
experiment.description: biochemical
test.conditions: VIM-1 IC50, fluorescence assay, CCF2-FA substrate, 30 pM enzyme, 2 hours at 25° C.
measure.name: pIC50
Answers are plain numbers, as −log10 of the molar value.

For each of the molecules below, note its pIC50.
1. CN(CCc1ccncc1)S(=O)(=O)c1ccc(-c2cccc3sc(N)nc23)c(-c2nnn[nH]2)c1S(N)(=O)=O.O=C(O)C(F)(F)F [Example 100, 2,2,2-trifluoroacetate]
2. NCc1nc2c(-c3ccc(S(=O)(=O)N[C@@H](CN)CO)c(S(N)(=O)=O)c3-c3nn[nH]n3)cccc2s1 [Example 381]
3. NC[C@H](N)CNS(=O)(=O)c1ccc(-c2cccc3ccc(N)nc23)c(-c2nn[nH]n2)c1S(N)(=O)=O [Example 371]
4. Nc1nc2c(-c3ccc(S(=O)(=O)NC[C@H]4CCCN4)c(S(N)(=O)=O)c3-c3nn[nH]n3)cccc2[nH]1 [Example 261]
5. NC[C@@H]1CCN(S(=O)(=O)c2ccc(-c3cccc4sc(N)nc34)c(-c3nnn[nH]3)c2S(N)(=O)=O)C1 [Example 70]
6. C[C@@H](N)CNS(=O)(=O)c1ccc(-c2ccc3nccn3c2)c(-c2nn[nH]n2)c1S(N)(=O)=O [Example 423]
7. Nc1nc2c(-c3ccc(S(=O)(=O)N[C@@H]4CNC[C@H]4N)c(S(N)(=O)=O)c3-c3nn[nH]n3)cccc2[nH]1 [Example 424]

Ans.
1. 7.90
2. 9.93
3. 9.73
4. 9.65
5. 8.55
6. 9.74
7. 9.52

Qu. Query: pIC50; subject: NCc1nc(-c2cccc(-c3ccc(S(=O)(=O)N[C@H]4CNC[C@H]4N)c(S(N)(=O)=O)c3-c3nn[nH]n3)c2)c[nH]1 [Example 462]
Ans. 9.64
